Measured values drawn from patent US20260167959A1 for this set.

# Tested on: Renilla luciferase RNA
# experiment_notes: Barcoded aptazyme variant library screen: un-cleaved Renilla luciferase RNA by barcode read counts, HEK293-T cells
# Assay type: cell-based
# condition_info: un-cleaved Renilla luciferase RNA, HEK293-T cells cultured with 1 mM theophylline (ON) over without theophylline (OFF); barcode read counts, triplicate
The reader will find reported Fold change in RNA expression between the ON state and the OFF state values listed item by item below.
Give the quantity in fold, number only.

RA251 (nucleic acid, expressed or natural sequence) DNA: GCGCGTCCTGGACCGGAATACCAGCATCGTCTTGATGCCCTTGGAAGTCCGGTTCGCGGAAACGCGTACATCCAGCTGACGAGTCCCAAATAGGACGAAACGCGC
1.1
RA184 (nucleic acid, expressed or natural sequence) DNA: GAGAATACCAGCATCGTCTTGATGCCCTTGGAAGTCTCGCGTCCTGGATTCGCGGAAACGCGTACATCCAGCTGACGAGTCCCAAATAGGACGAAACGCGC
1.3
RA061 (nucleic acid, expressed or natural sequence) DNA: GCGCGTCCTGGATTCGCGGAAACGCGTACATCCAGCTGACGAGTCCCAAATAGGACGAAACGCGCGGAATACCAGCATCGTCTTGATGCCCTTGGAAGTCC
1.9

input: # query: Fold change in RNA expression between the ON state and the OFF state of entry RA146 (nucleic acid, expressed or natural sequence) DNA: GCGCGTCCTGGATTCGCGGAAACGCGTACATCCAGCTGACGAGTCCCAAATAGGAATACCAGCATCGTCTTGATGCCCTTGGAAGTCCGGACGAAACGCGC
output: 1.4
